This listing pairs binders with measured Kd.
target or test system: T1, human PD-1_Fc (human, UniProt Q15116 25-167, limits assumed)
T1 construct: not shown: Fc part
T1 sequence (Q15116 25-167 limits assumed): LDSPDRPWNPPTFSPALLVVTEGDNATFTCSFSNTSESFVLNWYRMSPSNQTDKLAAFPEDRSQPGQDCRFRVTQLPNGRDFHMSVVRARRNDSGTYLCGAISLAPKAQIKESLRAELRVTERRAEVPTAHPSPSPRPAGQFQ
assay protocol: bio-layer interferometry (ForteBio), Fab in solution, human PD-1_Fc on sensor tip
Kindly answer with a numeric value in nM, unit omitted.

# binder, outcome measure, unit tag, value measured
rows = [
    ("Fab of Antibody D (Fab, V domains shown, Fab in solution in BLI; also called Antibody D (Fab in solution)) VH: QVQLVQSGAEVKKPGASVKVSCKASGYTFEKYYMHWVRQAPGQGLEWMGIINPDGGSTGYAQKFQGRVTMTRDTSTSTVYMELSSLRSEDTAVYYCAKEGVADGYGLVDVWGQGTMVTVSS VL: EIVLTQSPATLSLSPGERATLSCRASQSVSSYLAWYQQKPGQAPRLLIYDASKRATGIPARFSGSGSGTDFTLTISSLEPEDFAVYYCDQRNNWPLTFGGGTKVEIK", "Kd", "nM", 3.4),
]

Alright, here's another binder for you.
Answer with the recorded Kd of Fab of Antibody A (Fab, V domains shown, Fab used in solution in the bio-layer interferometry columns 'Fab in solution'; also called Antibody A (Fab in solution)) VH: QVQLVQSGAEVKKPGASVKVSCKASGYTFTSYYMHWVRQAPGQGLEWMGIINPSGGSTSYAQKFQGRVTMTRDTSTSTVYMELSSLRSEDTAVYYCAKEGVADGYGLVDVWGQGTMVTISS VL: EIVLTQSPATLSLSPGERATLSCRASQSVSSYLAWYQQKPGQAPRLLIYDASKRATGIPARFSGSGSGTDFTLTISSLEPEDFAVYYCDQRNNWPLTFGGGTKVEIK only.
16
